Experiment: Quantitative High-Throughput drug screen in 47 multiple myeloma cell lines against the NCATS MIPE library collection: KMS11_JCRBsus cell viability assay (AID 1919873); further: potency means the concentration at half of the fitted maximal effect; nearly all actives have a fitted effect of over 50% in size
Settings: KMS11 myeloma viability, CellTiter-Glo ATP luminescence, 48 h; series mostly up to 45.8 µM
Results filed as inconclusive are left out. Active and inactive are the calls of the source. The call rests on the fitted dose curve; in most records, active means well fitted cell-killing curve with a large enough effect; inconclusive means small, poorly fitted or top-dose-only effect, or effect the other way; inactive means no such curve, though single readings can be large or run the other way.
measured.property: Potency

// lookup Potency for COc1cc2c(Oc3ccc(NC(=O)C4(C(=O)Nc5ccc(F)cc5)CC4)cc3F)ccnc2cc1OCCCN1CCOCC1
1180 nM (active)

// lookup Potency for C=C1C(=CC=C2CCCC3(C)[C@@H]([C@H](C)C=CC=CC(O)(CC)CC)CC[C@@H]23)C[C@@H](O)C[C@@H]1O (stereo partly drawn)
23500 nM (active)

// lookup Potency for COc1cc(C)c(Sc2cnc(NC(=O)c3ccc(CNC(C)C(C)C)cc3)s2)cc1C(=O)N1CCN(C(C)=O)CC1 (stereo not drawn)
8330 nM (active)

// lookup Potency for COc1cc(C(=O)N2CCC(N3CCN(C)CC3)CC2)ccc1Nc1ncc2c(n1)N(C)c1ccccc1C(=O)N2C
1660 nM (active)

// lookup Potency for COc1cc(OC2CCN(C)CC2)ccc1Nc1ncc2c(n1)n(C1CCCC1)c(=O)n2C
16600 nM (active)

// lookup Potency for CC1=C(CO)C(=O)O[C@@H]([C@@H](C)[C@H]2CC[C@H]3[C@@H]4C[C@H]5O[C@]56[C@@H](O)C=CC(=O)[C@]6(C)[C@@H]4CC[C@]23C)C1
93.5 nM (active)

// lookup Potency for C=CC(=O)Nc1cc2c(Nc3ccc(F)c(Cl)c3)ncnc2cc1C#CC(C)(C)N1CCN(C)CC1
1320 nM (active)

// lookup Potency for CCCCOc1c(C(=O)c2c(F)cc(C)cc2F)cnc2n[nH]cc12
2640 nM (active)

// lookup Potency for O=C(Nc1ncc(-c2cc(C(F)F)nn2-c2c(Cl)cccc2Cl)s1)C1CC1
187 nM (active)

// lookup Potency for COc1cccc2c(NCc3ccccc3)nc(-n3c(N)nc4ccccc43)nc12
2640 nM (active)

// lookup Potency for CCN1CCN(Cc2ccc(-c3cc4c(N[C@H](C)c5ccccc5)ncnc4[nH]3)cc2)CC1
3720 nM (active)

// lookup Potency for COc1cc2nccc(Oc3ccc(NC(=O)C4(C(=O)Nc5ccc(F)cc5)CC4)cc3)c2cc1OC
20900 nM (active)

// lookup Potency for Cc1cn2c(-c3cn[nH]c3)cnc2c(Nc2ccc(C(=O)N3CCNCC3)cc2F)n1
8330 nM (active)

// lookup Potency for CN(c1ncccc1CNc1nc(Nc2ccc3c(c2)CC(=O)N3)ncc1C(F)(F)F)S(C)(=O)=O
2640 nM (active)

// lookup Potency for CC=C1NC(=O)[C@H]2CSSCCC=C[C@H](CC(=O)N[C@H](C(C)C)C(=O)N2)OC(=O)[C@H](C(C)C)NC1=O
18.7 nM (active)

// lookup Potency for OCc1ccc(-c2ccc(-c3ccc(CO)s3)o2)s1
11800 nM (active)

// lookup Potency for CC(C)(C)NC(=O)[C@H]1CN(Cc2cccnc2)CCN1C[C@@H](O)C[C@@H](Cc1ccccc1)C(=O)N[C@H]1c2ccccc2C[C@H]1O
18700 nM (active)
